subject.of.test: CA IX on live Ramos B cells (Homo sapiens)
method: SPRM kinetic titration of small molecules on live Ramos B suspension cells (1:1 kinetic model, 600 ROIs)
run.conditions: KD, Batch 3, live Ramos B cells, experiment/batch 3
observation.type: Kd (nM)
Report the value in nM with no unit label.

### Prompt Consider the compound CN(C)c1cccc2c(S(N)(=O)=O)cccc12 [Dansylamide] and give its recorded Kd.
### Response 534

* * *

subject.of.test: CA IX on live Ramos B cells (Homo sapiens)
method: SPRM kinetic titration of small molecules on live Ramos B suspension cells (1:1 kinetic model, 600 ROIs)
run.conditions: KD, Batch 1, live Ramos B cells, experiment/batch 1
observation.type: Kd (µM)
Report the value in µM with no unit label.

### Prompt Consider the compound CN(C)c1cccc2c(S(N)(=O)=O)cccc12 [Dansylamide] and give its recorded Kd.
### Response 0.586
